Biological target: Zwf (ZE), glucose-6-phosphate dehydrogenase (Escherichia coli, UniProt P0AC53)
Sequence (P0AC53 whole entry): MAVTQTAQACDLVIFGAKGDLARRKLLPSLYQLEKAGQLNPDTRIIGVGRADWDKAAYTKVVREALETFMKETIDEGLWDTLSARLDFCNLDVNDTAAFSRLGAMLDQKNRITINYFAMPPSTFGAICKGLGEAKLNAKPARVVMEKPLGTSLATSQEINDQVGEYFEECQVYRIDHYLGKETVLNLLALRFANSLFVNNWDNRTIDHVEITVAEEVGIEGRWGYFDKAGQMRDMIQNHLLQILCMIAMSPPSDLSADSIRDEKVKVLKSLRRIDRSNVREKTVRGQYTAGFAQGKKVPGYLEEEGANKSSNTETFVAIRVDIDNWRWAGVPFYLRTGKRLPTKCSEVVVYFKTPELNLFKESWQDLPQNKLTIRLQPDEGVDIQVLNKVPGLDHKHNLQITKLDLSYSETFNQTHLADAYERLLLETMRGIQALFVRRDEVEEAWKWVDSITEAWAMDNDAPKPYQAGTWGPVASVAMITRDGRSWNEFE
pKi: −log10 of the molar value.
READOUT_LABEL: pKi

### Prompt Give recorded pKi with Zwf (ZE), glucose-6-phosphate dehydrogenase (Escherichia coli, UniProt P0AC53) for the following compound: NC(=O)C1=CN([C@@H]2O[C@H](COP(=O)(O)OP(=O)(O)OC[C@H]3O[C@@H](n4cnc5c(N)ncnc54)[C@H](OP(=O)(O)O)[C@@H]3O)[C@@H](O)[C@H]2O)C=CC1
### Response ~4.40
